Data provenance is ChEMBL document CHEMBL4196171.

Test: Cmax in C57BL/6 mouse plasma at 10 mg/kg, po by HPLC and mass spectrometry
Type: ADME, organism-based
Design: dose 10 mg/kg, route oral
quantity.measured: Cmax

*Q* What Cmax value was documented for this compound, `O=C(NC[C@H](O)[C@@H](O)[C@H](O)[C@H](O)CO)c1ccc(COc2cc(Cl)c(CN3CSC[C@H]3C(=O)N3CCN(C4CC4)c4ccccc43)cc2Cl)cc1` ?
*A* 2 ng/mL

* * *

Assay: Drug recovery in C57BL/6 mouse feces at 10 mg/kg, po after 48 hrs by LC-MS/MS method
Type: ADME, organism-based
Details: faeces, read-out: Drug recovery
quantity.measured: dose excreted at 48 h (%)
# value in %; strip the unit string

*Q* What dose excreted at 48 h value was documented for this compound, `O=C(NC[C@H](O)[C@@H](O)[C@H](O)[C@H](O)CO)c1ccc(COc2cc(Cl)c(CN3CSC[C@H]3C(=O)N3CCN(C4CC4)c4ccccc43)cc2Cl)cc1` ?
*A* 83
